Would you mind telling me the reported RP-LC retention time of each entry?
# Protocol Description: gradient 5% acetonitrile 3 min, to 50% in 2 min, to 85% in 15 min, held 3 min, 100 µL/min
# Test Context: column: Zorbax Extend-C18 2.1 x 50 mm; eluents: water / acetonitrile, 0.1% formic acid

## Task Given the compound "CCCn1cc(C(=O)NCc2cccnc2)c2cccnc21" , write its reported RP-LC retention time.
## Result 580 s

## Task Give the value of RP-LC retention time reported for the following: "CC(C)CN1CCN(S(=O)(=O)c2cc(-c3nnc(C4CC4)o3)co2)CC1"
## Result 622 s

## Task Supply RP-LC retention time value. Item: CCOC(=O)c1cccc(NC(=O)C2CCCN(C(=O)C3Sc4ccccc4NC3=O)C2)c1 (stereo not given)
## Result 851 s

## Task Return RP-LC retention time for the following compound: "CCc1noc(NC(C)=O)c1-c1ccc(OC)c(S(=O)(=O)Nc2ccc(OC)cc2OC)c1"
## Result 777 s

## Task Supply measured RP-LC retention time of "COc1ccc(-c2cn3c(CC(=O)Nc4ccc5c(c4)OCCO5)csc3n2)cc1OC" in your reply.
## Result 684 s

## Task Please report RP-LC retention time for the following compound: "O=C(c1cc(C2CC2)[nH]n1)N1CCN(c2ccc(N3CCOCC3)nn2)CC1"
## Result 577 s

## Task Fill in RP-LC retention time for record "CCc1noc(-c2nc(-c3ccccc3OC)no2)n1"
## Result 986 s

## Task Tell us which RP-LC retention time value is on record for "Cc1cccc2c(=O)n(C3CCN(S(=O)(=O)c4cccc(Cl)c4)CC3)cnc12"
## Result 1020 s

## Task Supply recorded RP-LC retention time for "CSc1nnc(-c2nn(C)c3c2CN(C(=O)c2ccccc2Cl)CC3)n1C" here.
## Result 710 s

## Task For the compound "CCCN(C(C)=O)c1nc(-c2cccc(Br)c2)cs1" , give its reported RP-LC retention time.
## Result 1260 s

## Task Determine its reported RP-LC retention time: "Cc1nn(-c2ccc(-c3noc(C4CC4)n3)cc2)cc1C(=O)Nc1cc(F)ccc1F"
## Result 1070 s

## Task Look up RP-LC retention time of "CCCCNC(=O)c1cnn(-c2ccc(-c3nc(C)no3)cn2)c1C" and report it.
## Result 853 s

## Task Give RP-LC retention time for the following compound: COc1ccc(NC(=O)N2CCCC(Cn3cnc4cccnc43)C2)c(OC)c1 (stereo not given)
## Result 651 s

## Task Please report RP-LC retention time for the following compound: O=C(NC1CCCCC1)N1CCC(c2noc(-c3ccccn3)n2)C1 (stereo not given)
## Result 734 s

## Task Respond only with RP-LC retention time recorded for "CC(C)CCNC(=O)NCCn1c(-c2ccc(F)cc2)nc2ccccc21"
## Result 650 s

## Task Input "CCOc1ccc(S(=O)(=O)N2CCC(C(=O)NC3CCCCC3)CC2)cc1" , output reported RP-LC retention time.
## Result 922 s

## Task Could you please provide reported RP-LC retention time for "CCCN1C(=O)COc2ccc(-c3noc(-c4cccc(NC(C)=O)c4C)n3)cc21" ? Thanks!
## Result 872 s

## Task In one line, give reported RP-LC retention time of the entry "CCn1cc2c3c(cccc31)CN(C(=O)Nc1ccc3c(c1)OCCO3)CC2" .
## Result 908 s

## Task State, in one line, measured RP-LC retention time of "Cc1oc2ncnc(N3CCCCC3)c2c1C(=O)N1CCN(c2ccccn2)CC1"
## Result 591 s

## Task Supply reported RP-LC retention time belonging to this compound: "Cc1ccccc1CNC(=O)CN1CCN(Cc2ccccc2)C1=O"
## Result 806 s
